Reference source: the kinase profiling compilation of Christmann-Franck et al. (2016)

- ASSAYED_TARGET: PRKACB (human) (UniProt P22694)
- PROCEDURE_DETAILS: KINOMEscan competition binding
- EXPERIMENTAL_CONDITIONS: compound 10.0 µM
For each of the compounds below, state its kinase still bound, per cent of control.
Answers are plain numbers, in %.

For each of the compounds below, state kinase still bound, per cent of control.
1. Cn1cc(C2=C(c3ccc(Cl)cc3Cl)C(=O)NC2=O)c2ccccc21
2. Cc1cnc(-c2cnc(NCCNc3ccc(C#N)cn3)nc2-c2ccc(Cl)cc2Cl)[nH]1
3. COc1ccc(CNC(=O)Nc2ncc([N+](=O)[O-])s2)cc1
4. O=C1Nc2cc(Br)ccc2/C1=C1/Nc2ccccc2/C1=N\O

[100, 100, 98, 100]
